meta.source: patent US7767659B2

Give measured log10(IC (TGI)) for each item. Keep answers brief.
Test system: HeLa-APL
Assay Protocol: Inhibition of cells growth by colorimetric assay (SRB)
Condition Notes: Homo sapiens, 48 h, read-out: HELA-APL TGI
Lab note - IC (TGI) converted to log10 from values in µM.

Consider the following illustrative entries.
1) COc1c(C)cc2c(c1O)[C@H]1N[C@@H](C2)[C@H](O)N2C1[C@@H]1SC[C@]3(NCCc4c3[nH]c3ccccc43)C(=O)OC[C@H]2c2c3c(c(C)c(OC(C)=O)c21)OCO3 (some centres unmarked) ... -1.40
2) C=CCN1[C@@H]2c3c(cc(C)c(OC)c3O)C[C@H]1[C@H](C#N)N1C2[C@@H]2SC[C@]3(NCCc4cc(O)c(OC)cc43)C(=O)OC[C@H]1c1c3c(c(C)c(OC(=O)/C=C/c4ccccc4)c12)OCO3 (some centres unmarked) ... -0.45
3) COc1c(C)cc2c(c1O)[C@H]1N[C@@H](C2)[C@H](C#N)N2C1[C@@H]1SCC(=O)C(=O)OC[C@H]2c2c3c(c(C)c(OC(C)=O)c21)OCO3 (some centres unmarked) ... -1.17

For each of the molecules below, note its log10(IC (TGI)).
1. COc1c(C)cc2c(c1OC(=O)/C=C/c1ccccc1)[C@H]1N[C@@H](C2)[C@H](C#N)N2C1[C@@H]1SCC(NC(=O)C(F)(F)F)C(=O)OC[C@H]2c2c3c(c(C)c(OC(C)=O)c21)OCO3 (some centres unmarked)
2. CCC(=O)NC1CS[C@@H]2c3c(OC(C)=O)c(C)c4c(c3[C@H](COC1=O)N1C2[C@@H]2N[C@@H](Cc3cc(C)c(OC)c(O)c32)[C@@H]1C#N)OCO4 (some centres unmarked)

A:
-1.22
-1.72
